Collected IC50 values appear next to each entry.
# assay.target: KRAS WT (Homo sapiens (Human), UniProt P01116+P62937)
# Sequence (P01116-2 other isoform, or with tags, fused parts or gaps, one chain of several): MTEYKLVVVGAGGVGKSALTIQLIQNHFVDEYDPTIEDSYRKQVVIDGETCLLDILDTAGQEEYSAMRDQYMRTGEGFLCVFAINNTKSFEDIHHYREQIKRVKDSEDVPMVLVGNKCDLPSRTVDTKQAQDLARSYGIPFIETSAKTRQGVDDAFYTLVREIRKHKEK
# test.protocol: Ras-Raf (BRAF RBD) disruption / FRET / MOA assay, KRAS WT
# Format: biochemical
# assay.setup: read-out: IC50* KRAS WT FRET data

CCn1c(-c2cccnc2[C@H](C)OC)c2c3cc(ccc31)-c1csc(n1)C[C@H](NC(=O)C[C@@H](C)OC1CN(C(=O)C#CC(C)(C)N(C)C)C1)C(=O)N1CCC[C@H](N1)C(=O)OCC(C)(C)C2 (atropisomer, axis not shown) [Example A638] | 1 to 10 µM

--- query ---
Lookup result for CCn1c(-c2cccnc2[C@H](C)OC)c2c3cc(ccc31)C1=CCCN(C1)C[C@H](NC(=O)[C@@H](COC1CN(C(=O)C#CC(C)(C)N(C)C)C1)C(C)C)C(=O)N1CCC[C@H](N1)C(=O)OCC(C)(C)C2 (atropisomer, axis not shown) [Example A663] ; measured IC50: > 10 µM

---

# assay.target: KRAS G12D (Homo sapiens (Human), UniProt P01116+P62937, G12D)
# Sequence (P01116-2 other isoform, or with tags, fused parts or gaps G12D, one chain of several): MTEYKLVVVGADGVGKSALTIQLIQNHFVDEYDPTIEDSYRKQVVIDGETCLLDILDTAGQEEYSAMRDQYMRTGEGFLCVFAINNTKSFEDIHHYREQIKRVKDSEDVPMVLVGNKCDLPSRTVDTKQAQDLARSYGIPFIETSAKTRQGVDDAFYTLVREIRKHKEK
# test.protocol: Ras-Raf (BRAF RBD) disruption / FRET / MOA assay, KRAS G12D
# Format: biochemical
# assay.setup: Ras-Raf disruption/FRET/MOA assay; class symbols; read-out: KRAS G12D FRET data IC50
# Description: The purpose of this biochemical assay is to measure the ability of test compounds to facilitate ternary complex formation between a nucleotide-loaded Ras isoform and cyclophilin A; the resulting ternary complex disrupts binding to a BRAF^RBD construct, inhibiting Ras signaling through a RAF effector. Compound is present in plate wells as a 10-point 3-fold dilution series starting at a final concentration of 30 μM. […]
pIC50: −log10 of the molar value.
measure.name: pIC50

C=CC(=O)N1CC[C@H](C(=O)N(C)[C@H](C(=O)N[C@H]2Cc3cc(O)cc(c3)-c3ccc4c(c3)c(c(-c3cncc(CN(C)C)c3)n4CC)CC(C)(C)COC(=O)[C@@H]3CCCN(N3)C2=O)C(C)C)C1 | < 5.00
CCn1c(-c2cccnc2[C@H](C)OC)c2c3cc(ccc31)-c1cccc(c1)C[C@H](NC(=O)[C@H](C(C)C)N1CO[C@]3(CCN(C(=O)C#CC(C)(C)N4CCC4)C3)C1=O)C(=O)N1CCC[C@H](N1)C(=O)OCC(C)(C)C2 (atropisomer, axis not shown) | 5.00 to 6.00
C=CC(=O)N1CC[C@H](C(=O)N(C)[C@H](C(=O)N[C@H]2Cc3cc(O)cc(c3)-c3ccc4c(c3)c(c(-c3cc(CN(C)C)cnc3[C@H](C)OC)n4CC)CC(C)(C)COC(=O)[C@@H]3CCCN(N3)C2=O)C(C)C)C1 (atropisomer, axis not shown) [Example A537] | 6.00 to 7.00
C=CC(=O)N1C[C@@H]2[C@H](C1)[C@@H]2C(=O)N(C)[C@H](C(=O)N[C@H]1Cc2cc(O)cc(c2)-c2ccc3c(c2)c(c(-c2cccnc2[C@H](C)OC)n3CC)CC(C)(C)COC(=O)[C@@H]2CCCN(N2)C1=O)C(C)C (atropisomer, axis not shown) | 7.00 to 8.00

Lookup result for C=C(F)C(=O)N1CC(N(C)C(=O)N(C)[C@H](C(=O)N[C@H]2Cc3nc(cs3)-c3ccc4c(c3)c(c(-c3cccnc3[C@H](C)OC)n4CC)CC(C)(C)COC(=O)[C@@H]3CCCN(N3)C2=O)C(C)C)C1 (atropisomer, axis not shown) ; measured pIC50: 5.00 to 6.00

Lookup result for CCn1c(-c2cccnc2[C@H](C)OC)c2c3cc(ccc31)-c1csc(n1)C[C@H](NC(=O)[C@H](C(C)C)N(C)C(=O)N1CCCOC13CN(C(=O)C#CC(C)(C)N(C)C)C3)C(=O)N1CCC[C@H](N1)C(=O)OCC(C)(C)C2 (atropisomer, axis not shown) ; measured pIC50: < 5.00

Lookup result for "CCn1c(-c2ccccc2CCOC)c2c3cc(ccc31)-c1cc(O)cc(c1)C[C@H](NC(=O)[C@H](C(C)C)N(C)C(=O)c1ccc(NC(=O)/C=C/CN(C)C)nc1)C(=O)N1CCC[C@H](N1)C(=O)OCC(C)(C)C2" ; measured pIC50: 5.00 to 6.00

Lookup result for CCn1c(-c2cccnc2[C@H](C)OC)c2c3cc(ccc31)-c1csc(n1)C[C@H](NC(=O)[C@H](C(C)C)N(C)C(=O)N(C)C1CN(C(=O)/C=C/C3CN(C)C3)C1)C(=O)N1CCC[C@H](N1)C(=O)OCC(C)(C)C2 (atropisomer, axis not shown) ; measured pIC50: 5.00 to 6.00

Lookup result for CC#CC(=O)N1CC[C@]2(CCN([C@H](C(=O)N[C@H]3Cc4cccc(c4)-c4ccc5c(c4)c(c(-c4cccnc4[C@H](C)OC)n5CC)CC(C)(C)COC(=O)[C@@H]4CCCN(N4)C3=O)C(C)C)C2=O)C1 (atropisomer, axis not shown) ; measured pIC50: 5.00 to 6.00

---

# assay.target: KRAS WT (Homo sapiens (Human), UniProt P01116+P62937)
# test.protocol: Ras-Raf (BRAF RBD) disruption / FRET / MOA assay, KRAS WT
# Assay type: biochemical
# assay.setup: read-out: IC50* KRAS WT FRET data
measure.name: IC50

C=CC(=O)N(C)CCN1CCN(C(=O)N(C)[C@H](C(=O)N[C@H]2Cc3cccc(c3)-c3ccc4c(c3)c(c(-c3cccnc3[C@H](C)OC)n4CC)CC(C)(C)COC(=O)[C@@H]3CCCN(N3)C2=O)C(C)C)CC1 (atropisomer, axis not shown) | 100 to 1000 nM

--- query ---
Lookup result for C=CS(=O)(=O)N1CC2(CCN([C@H](C(=O)N[C@H]3Cc4cc(O)cc(c4)-c4ccc5c(c4)c(c(-c4cccnc4[C@H](C)OC)n5CC)CC(C)(C)COC(=O)[C@@H]4CCCN(N4)C3=O)C(C)C)C2=O)C1 (atropisomer, axis not shown) ; measured IC50: 10 to 100 nM

---

# assay.target: KRAS G13D (Homo sapiens (Human), UniProt P01116+P62937, G13D)
# Sequence (P01116-2 other isoform, or with tags, fused parts or gaps G13D, one chain of several): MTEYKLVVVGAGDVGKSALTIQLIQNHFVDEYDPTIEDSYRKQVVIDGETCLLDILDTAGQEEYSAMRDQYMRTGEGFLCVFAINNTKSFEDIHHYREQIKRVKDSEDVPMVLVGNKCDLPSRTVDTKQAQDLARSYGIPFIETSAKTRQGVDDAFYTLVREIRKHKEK
# test.protocol: Ras-Raf (BRAF RBD) disruption / FRET / MOA assay, KRAS G13D
# Assay type: biochemical
# assay.setup: read-out: IC50* KRAS G13D FRET data
pIC50: −log10 of the molar value.
measure.name: pIC50

Examples from the recorded data:
CCn1c(-c2cccnc2[C@H](C)OC)c2c3cc(ccc31)-c1cccc(c1)C[C@H](NC(=O)[C@H](C(C)C)N(C)C(=O)[C@H]1CCN(S(=O)(=O)C=C(C)C)C1)C(=O)N1CCC[C@H](N1)C(=O)OCC(C)(C)C2 (atropisomer, axis not shown) | < 5.00
C=C(C)C(=O)N1CC2(CCN(C(=O)N(C)[C@H](C(=O)N[C@H]3Cc4nc(cs4)-c4ccc5c(c4)c(c(-c4cccnc4[C@H](C)OC)n5CC)CC(C)(C)COC(=O)[C@@H]4CCCN(N4)C3=O)C(C)C)CC2)C1 (atropisomer, axis not shown) | 6.00 to 7.00
C=CC(=O)N(C)C(=O)N(C)[C@H](C(=O)N[C@H]1Cc2nc(cs2)-c2ccc3c(c2)c(c(-c2cccnc2[C@H](C)OC)n3CC)CC(C)(C)COC(=O)[C@@H]2CCCN(N2)C1=O)C(C)C (atropisomer, axis not shown) | < 5.00

--- query ---
Lookup result for C=CC(=O)N1CC[C@H]2[C@@H]1CN2C(=O)N(C)[C@H](C(=O)N[C@H]1Cc2nc(cs2)-c2ccc3c(c2)c(c(-c2cccnc2[C@H](C)OC)n3CC)CC(C)(C)COC(=O)[C@@H]2CCCN(N2)C1=O)C(C)C (atropisomer, axis not shown) ; measured pIC50: 5.00 to 6.00

---

# assay.target: KRAS G12S (Homo sapiens (Human), UniProt P01116+P62937, G12S)
# Sequence (P01116-2 other isoform, or with tags, fused parts or gaps G12S): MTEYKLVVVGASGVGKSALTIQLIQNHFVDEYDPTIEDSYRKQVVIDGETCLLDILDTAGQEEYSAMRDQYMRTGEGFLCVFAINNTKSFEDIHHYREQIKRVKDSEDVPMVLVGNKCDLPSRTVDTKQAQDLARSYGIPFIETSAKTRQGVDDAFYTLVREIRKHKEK
# Sequence (P62937 whole entry): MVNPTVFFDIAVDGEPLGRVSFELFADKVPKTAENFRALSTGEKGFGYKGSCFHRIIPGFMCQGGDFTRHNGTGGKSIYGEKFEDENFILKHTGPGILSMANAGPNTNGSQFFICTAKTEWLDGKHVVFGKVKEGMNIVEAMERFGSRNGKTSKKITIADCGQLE
# test.protocol: Ras-Raf (BRAF RBD) disruption / FRET / MOA assay, KRAS G12S
# Format: biochemical
# assay.setup: Ras-Raf disruption/FRET/MOA assay; class symbols; read-out: KRAS G12S FRET data IC50
pIC50: −log10 of the molar value.
Collected pIC50 values appear next to each entry.

Lookup result for "C=CC(=O)N1CCN(C(=O)N(C)[C@H](C(=O)N[C@H]2Cc3cc(O)cc(c3)-c3ccc4c(c3)c(c(-c3ccccc3CCOC)n4CC)CC(C)(C)COC(=O)[C@@H]3CCCN(N3)C2=O)C(C)C)CC1" ; measured pIC50: 5.00 to 6.00

Lookup result for "CCn1c(-c2cccnc2COC)c2c3cc(ccc31)-c1cc(O)cc(c1)C[C@H](NC(=O)[C@H](C(C)C)N(C)C(=O)[C@@H]1CCN(C(=O)C#CC(C)(C)N(C)C)C1)C(=O)N1CCC[C@H](N1)C(=O)OCC(C)(C)C2" ; measured pIC50: 5.00 to 6.00

Lookup result for C=CC(=O)N1CC[C@H](C(=O)N(C)[C@H](C(=O)N[C@H]2Cc3cccc(c3)-c3ccc4c(c3)c(c(-c3cnn(C)c3CN(C)C)n4CC)CC(C)(C)COC(=O)[C@@H]3CCCN(N3)C2=O)C(C)C)C1 (relative stereo) ; measured pIC50: < 5.00

Lookup result for CCn1c(-c2cccnc2[C@H](C)OC)c2c3cc(ccc31)-c1cc(O)cc(c1)C[C@H](NC(=O)[C@H](C(C)C)N(C)C(=O)[C@H]1CCN(C(=O)C#CC3(N(C)C)COC3)C1)C(=O)N1CCC[C@H](N1)C(=O)OCC(C)(C)C2 [Example A246] ; measured pIC50: 6.00 to 7.00
